Let's look at some compounds and their measured pIC50.
# TARGET DESC: KinA (Bacillus subtilis, UniProt P16497)
# Construct: made in house
# ASSAY EXPLANATION: biochemical
# Type: biochemical
# TEST PARAMETERS: Fatty Acid Inhibitors of KinA Activity (category by I0.5), Table 4; I0.5 at 4×10^-8 M KinA, 32P incorporation into SpoOF
pIC50: −log10 of the molar value.
MEASUREMENT KIND: pIC50

- COMPOUND: "CCCCCC/C=C/CCCCCCCCCC(=O)O [trans-11-octadecenoic]"
  READOUT VALUE: "< 3.00"
- COMPOUND: "CCCCC/C=C\\C/C=C\\C/C=C\\C/C=C\\CCCC(=O)O [all cis-5,8,11,14-eicosatetraenoic]"
  READOUT VALUE: "> 4.15"
- COMPOUND: "CCCCCC/C=C\\CCCCCCCCCC(=O)O [cis-11-octadecanoic]"
  READOUT VALUE: "> 4.15"
- COMPOUND: "CCCCCCCC/C=C\\CCCCCCCCCCCCCC(=O)O [cis-15-tetracosenoic]"
  READOUT VALUE: "< 3.00"
- COMPOUND: "CCCCCCCCCC(=O)O [decanoic]"
  READOUT VALUE: "< 3.00"
- COMPOUND: "CCCCCCCCCCCCCCCCCC(=O)O [octadecanoic]"
  READOUT VALUE: "3.30 to 4.00"

---

# TARGET DESC: KinA (Bacillus subtilis, UniProt P16497)
# Construct: made in house
# ASSAY EXPLANATION: biochemical
# Type: biochemical
# TEST PARAMETERS: Table 4; I0.5 at 4×10^-8 M KinA, 32P incorporation into SpoOF; read-out: Fatty Acid Inhibitors of KinA Activity (category by I0.5)

- MOLECULE: "CCCCCCCCCCCCCCCCC(=O)O [heptadecanoic]"
  IC50: "> 1000 µM"
- MOLECULE: "CC(C)CCCCCCCCCCCCCC(=O)O [15-methylhexadecanoic]"
  IC50: "> 1000 µM"
- MOLECULE: "CC(C)CCCCCCCCCCC(=O)O [12-methyltridecanoic]"
  IC50: "100 to 500 µM"
- MOLECULE: "CCCCCCCCCCCC(=O)O [dodecanoic]"
  IC50: "> 1000 µM"
- MOLECULE: "CCCCCCCCCCCCCCCC(=O)O [hexadecanoic]"
  IC50: "> 1000 µM"
- MOLECULE: "CCCCC/C=C\\C/C=C\\CCCCCCCC(=O)O [cis,cis-9,12-octadecenoic]"
  IC50: "< 70 µM"
- MOLECULE: "CCCCCCCCCCCCCC(=O)O [tetradecanoic]"
  IC50: "> 1000 µM"
- MOLECULE: "CC(C)CCCCCCCCCCCC(=O)O [13-methyltetradecanoic]"
  IC50: "100 to 500 µM"
- MOLECULE: "CC(C)CCCCCCCCCCCCCCC(=O)O [16-methylheptadecanoic]"
  IC50: "> 1000 µM"
- MOLECULE: "CC(C)CCCCCCCCCCCCC(=O)O [14-methylpentadecanoic]"
  IC50: "> 1000 µM"
- MOLECULE: "CCCCCCCCCCC/C=C\\CCCCC(=O)O [cis-6-octadecanoic]"
  IC50: "< 70 µM"
- MOLECULE: "CCCC/C=C\\CCCCCCCC(=O)O [cis-9-tetradecenoic]"
  IC50: "100 to 500 µM"
- MOLECULE: "CCCCCC(=O)O [hexanoic]"
  IC50: "> 1000 µM"
- MOLECULE: "CCCCCCCC/C=C\\CCCCCCCCCC(=O)O [cis-11-eicosenoic]"
  IC50: "< 70 µM"
- MOLECULE: "CC/C=C\\C/C=C\\C/C=C\\CCCCCCCC(=O)O [all cis-9,12,15-octadecanoic]"
  IC50: "< 70 µM"
- MOLECULE: "CCCCCCCC/C=C\\CCCCCCCC(=O)O [cis-9-octadecanoic]"
  IC50: "< 70 µM"
- MOLECULE: "CCCCCCCC(=O)O [octanoic]"
  IC50: "> 1000 µM"
- MOLECULE: "CCCCCCCCCCCCCCCCCCCC(=O)O [eicosanoic]"
  IC50: "> 1000 µM"
- MOLECULE: "C/C=C/C(=O)O [trans-2-butenoic]"
  IC50: "> 1000 µM"
- MOLECULE: "CCCCCCCC/C=C\\CCCCCCCCCCCC(=O)O [cis-13-docosenoic]"
  IC50: "> 1000 µM"
- MOLECULE: "CCCCCC/C=C\\CCCCCCCC(=O)O [cis-9-hexadecanoic]"
  IC50: "< 70 µM"
- MOLECULE: "CCCCCCCC/C=C/CCCCCCCC(=O)O [trans-9-octadecenoic]"
  IC50: "> 1000 µM"

---

# TARGET DESC: KinA (Bacillus subtilis)
# Construct: made in house
# Sequence (P16497 1-606): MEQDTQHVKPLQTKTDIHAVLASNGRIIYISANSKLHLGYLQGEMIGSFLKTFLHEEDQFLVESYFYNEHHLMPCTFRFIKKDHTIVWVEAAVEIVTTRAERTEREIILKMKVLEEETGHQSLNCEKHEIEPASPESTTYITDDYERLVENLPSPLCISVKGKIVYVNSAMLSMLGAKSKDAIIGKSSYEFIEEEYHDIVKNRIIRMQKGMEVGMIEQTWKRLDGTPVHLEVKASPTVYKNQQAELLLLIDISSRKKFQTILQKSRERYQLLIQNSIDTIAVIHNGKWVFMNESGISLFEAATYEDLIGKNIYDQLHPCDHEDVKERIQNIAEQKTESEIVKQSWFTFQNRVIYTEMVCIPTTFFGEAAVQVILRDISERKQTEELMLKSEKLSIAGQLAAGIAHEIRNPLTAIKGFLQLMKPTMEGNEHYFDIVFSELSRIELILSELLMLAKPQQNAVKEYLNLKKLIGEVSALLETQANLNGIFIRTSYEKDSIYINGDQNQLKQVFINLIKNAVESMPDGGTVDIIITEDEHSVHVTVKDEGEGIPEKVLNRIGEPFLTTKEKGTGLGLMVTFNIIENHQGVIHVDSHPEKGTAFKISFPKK
# ASSAY EXPLANATION: biochemical
# Format: biochemical
# TEST PARAMETERS: I0.5 value (concentration corresponding to 50% KinA activity), at 4×10^-8 M KinA
pIC50: −log10 of the molar value.

- COMPOUND SMILES: "CCCCCCCCCCCCCCCCCC(=O)O"
  pIC50: 3.30

---

Let's look at some molecules and their measured IC50.
# TARGET DESC: KinA (Bacillus subtilis, UniProt P16497)
# Construct: made in house
# ASSAY EXPLANATION: biochemical
# Format: biochemical
# TEST PARAMETERS: at 4×10^-8 M KinA; read-out: I0.5 value (concentration corresponding to 50% KinA activity)
MEASUREMENT KIND: IC50

- MOLECULE: "CCCC/C=C\\CCCCCCCC(=O)O [cis-9-tetradecenoic]"
  MEASUREMENT KIND: "IC50"
  READOUT VALUE: "200 µM"
- MOLECULE: "CC(C)CCCCCCCCCCCC(=O)O [13-methyltetradecanoic]"
  MEASUREMENT KIND: "IC50"
  READOUT VALUE: "400 µM"
